These measurements were taken from ChEMBL document CHEMBL1149207.

pIC50: −log10 of the molar value.
As an illustration, consider measured pIC50 for compounds on RNA-directed RNA polymerase (Hepacivirus hominis, UniProt O39930).
Sequence (O39930 whole entry): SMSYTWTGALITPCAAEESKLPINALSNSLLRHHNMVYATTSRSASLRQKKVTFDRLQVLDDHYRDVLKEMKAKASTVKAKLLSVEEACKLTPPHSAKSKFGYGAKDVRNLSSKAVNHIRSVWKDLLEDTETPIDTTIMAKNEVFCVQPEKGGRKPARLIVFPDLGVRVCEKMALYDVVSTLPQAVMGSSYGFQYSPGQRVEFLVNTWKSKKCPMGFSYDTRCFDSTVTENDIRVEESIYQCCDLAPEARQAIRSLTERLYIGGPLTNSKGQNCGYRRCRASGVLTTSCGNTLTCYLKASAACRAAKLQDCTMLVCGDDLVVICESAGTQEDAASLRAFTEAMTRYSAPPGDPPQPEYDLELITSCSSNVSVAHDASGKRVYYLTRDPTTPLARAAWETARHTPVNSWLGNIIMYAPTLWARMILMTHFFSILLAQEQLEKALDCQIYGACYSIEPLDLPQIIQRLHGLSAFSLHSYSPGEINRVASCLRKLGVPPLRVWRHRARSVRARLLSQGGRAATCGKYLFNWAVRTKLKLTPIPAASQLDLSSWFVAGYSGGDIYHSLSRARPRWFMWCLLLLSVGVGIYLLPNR

molecule smiles: O=C(N[C@@H](Cc1ccccc1)C(=O)O)c1ccc2c(c1)nc(-c1ccccn1)n2C1CCCCC1
pIC50: 5.15

molecule smiles: O=C(N[C@@H](Cc1c[nH]c2ccc(O)cc12)C(=O)O)c1ccc2c(c1)nc(-c1ccoc1)n2C1CCCCC1
pIC50: 7.30

molecule smiles: O=C(N[C@@H](Cc1c[nH]c2ccc(F)cc12)C(=O)O)c1ccc2c(c1)nc(-c1ccoc1)n2C1CCCCC1
pIC50: 5.54

molecule smiles: CC(=O)Nc1ccc2[nH]cc(C[C@H](NC(=O)c3ccc4c(c3)nc(-c3ccoc3)n4C3CCCCC3)C(=O)O)c2c1
pIC50: 7.22

molecule smiles: COc1ccc(CNC(=O)c2ccc3c(c2)nc(-c2ccccn2)n3C2CCCCC2)cc1OC
pIC50: 5.15

molecule smiles: O=C(O)COc1ccc2[nH]cc(C[C@H](NC(=O)c3ccc4c(c3)nc(-c3ccoc3)n4C3CCCCC3)C(=O)O)c2c1
pIC50: 7.72

molecule smiles: Nc1ccc2[nH]cc(C[C@H](NC(=O)c3ccc4c(c3)nc(-c3ccoc3)n4C3CCCCC3)C(=O)O)c2c1
pIC50: 7.05

molecule smiles: COc1ccc([C@H](NC(=O)c2ccc3c(c2)nc(-c2ccccn2)n3C2CCCCC2)C(=O)O)cc1OC
pIC50: 5.70

molecule smiles: O=C(N[C@@H](Cc1c[nH]c2ccc([N+](=O)[O-])cc12)C(=O)O)c1ccc2c(c1)nc(-c1ccoc1)n2C1CCCCC1
pIC50: 5.70

molecule smiles: O=C(N[C@@H](Cc1c[nH]c2ccc(C3N=NN=N3)cc12)C(=O)O)c1ccc2c(c1)nc(-c1ccoc1)n2C1CCCCC1
pIC50: 7.82

molecule smiles: O=C(N[C@@H](Cc1c[nH]c2ccc(O)cc12)C(=O)O)c1ccc2c(c1)nc(-c1ccccn1)n2C1CCCCC1
pIC50: 6.85

molecule smiles: Cc1[nH]c2ccc(O)cc2c1C[C@H](NC(=O)c1ccc2c(c1)nc(-c1ccoc1)n2C1CCCCC1)C(=O)O
pIC50: 6.34

molecule smiles: O=C(O)C(=O)Nc1ccc2[nH]cc(C[C@H](NC(=O)c3ccc4c(c3)nc(-c3ccoc3)n4C3CCCCC3)C(=O)O)c2c1
pIC50: 8.10
